# Measured target: MAGL (Mus musculus (Mouse), UniProt O35678)
# Sequence (O35678 whole entry): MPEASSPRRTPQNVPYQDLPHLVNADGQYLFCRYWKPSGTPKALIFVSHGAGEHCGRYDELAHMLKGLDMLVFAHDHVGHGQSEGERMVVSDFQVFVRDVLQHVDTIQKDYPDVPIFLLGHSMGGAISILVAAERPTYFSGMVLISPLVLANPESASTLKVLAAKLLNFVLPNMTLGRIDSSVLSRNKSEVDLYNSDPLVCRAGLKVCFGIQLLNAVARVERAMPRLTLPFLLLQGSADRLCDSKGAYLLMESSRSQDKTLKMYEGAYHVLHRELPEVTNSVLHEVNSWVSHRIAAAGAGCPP
# Procedure details: In vitro competitive activity-based protein profiling, MAGL (mouse)
# Format: biochemical
# Test context: 1 μM, read-out: MAGL % inh. 1 μM (mouse)
# Description: In Vitro Competitive Activity-Based Protein Profiling. Proteomes (mouse brain membrane fraction or cell lysates for mouse assays; human prefrontal cortex or cell membrane fractions for human assays) (50 μL, 1.0 mg/mL total protein concentration) were preincubated with varying concentrations of inhibitors at 37° C. […] Following gel imaging, serine hydrolase activity was determined by measuring fluorescent intensity of gel bands corresponding to MAGL and FAAH using ImageJ 1.43u software.
Here the recorded inhibition at 1 µM is given for each entry.

Solved entries (count: 4):
Compound	inhibition at 1 µM
CC(=O)Nc1cnn(C(=O)N2CCN(Cc3ccc(C(F)(F)F)cc3N3C4CCC3COC4)CC2)c1	≥ 75%
CC(=O)N(C)c1cnn(C(=O)N2C[C@H]3C[C@@H](N(C)Cc4ccc(N5CCCC5)cc4C(F)(F)F)C[C@H]3C2)c1	≥ 75%
CC(=O)N(C)c1cnn(C(=O)N2CC3CN(Cc4ccc(N5CCOCC5)cc4C(F)(F)F)CC3C2)c1 (stereo not shown)	≥ 75%
CC(=O)N(C)c1cnn(C(=O)N2C[C@H]3C[C@@H](NCc4ccc(Cl)cc4)C[C@H]3C2)c1	≥ 75%

Given CC(=O)N(C)c1cnn(C(=O)N2CCC3(CCN(Cc4cccc(C(F)(F)F)c4)C3)C2)c1 (stereo not shown) [Example 64] , state its recorded inhibition at 1 µM. ≥ 75%

# query: inhibition at 1 µM of entry CC(=O)N(C)c1cnn(C(=O)N2CCC3(CCN(Cc4ccc(N5CCCC5)cc4)C3)C2)c1 (stereo not shown) 25 to 50%

Consider the compound CC(=O)N(C)c1cnn(C(=O)N2C[C@H]3C[C@@H](N(C)Cc4ccccc4Cl)C[C@H]3C2)c1 and give its measured inhibition at 1 µM. 25 to 50%
